Each entry below lists one item and its recorded Rel-EFC value.
- System: HIV-1 infection of TZM-bl cells
- assay.procedure: HIV-1 infectivity enhancement assay, β-galactosidase luminescence
- Format: cell-based
- applied.conditions: 1.3 µM peptide; infection relative to EF-C (QCKIKQIINMWQ = 1)

With HIV-1 infection of TZM-bl cells as the test system, `CSISIQINM` showed Rel-EFC of 0,2

The recorded Rel-EFC with HIV-1 infection of TZM-bl cells for `QCKFKFQFNMWQ` was 0,62

The observed Rel-EFC for `KIKIQIII` when tested with HIV-1 infection of TZM-bl cells stands at 0,35

Value (Rel-EFC, HIV-1 infection of TZM-bl cells) for record `KIKIQIC` = 0,61

// Rel-EFC (HIV-1 infection of TZM-bl cells) for `CKIKIQIII` = 0,98

// returns Rel-EFC for `QCKFKQFFNM` with HIV-1 infection of TZM-bl cells; value = 0,43

Measured Rel-EFC (HIV-1 infection of TZM-bl cells), entry `RGDKIKIQI` : 0,02

Observed Rel-EFC, HIV-1 infection of TZM-bl cells, `QCKFKQFF` : 0,01

Reported HIV-1 infection of TZM-bl cells Rel-EFC for item `KIKIQINM` was 0,36
